# Tested on: M. chelonae ATCC 35752
# METHOD_NOTES: MIC, resazurin microtiter assay
# Type: cell-based
# RUN_PARAMETERS: Mycobacteroides chelonae, ATCC35752, Mueller Hinton II; read-out: MIC M. chelonae ATCC 35752
REPORTED_ENDPOINT: MIC (µg/mL)
// units = µg/mL; emit number, no label

{"columns": ["COMPOUND", "UNITS_SYMBOL", "MIC"],
 "data": [
  ["Cc1cc(C)c2cc(C(=O)NC3CCCCC3)[nH]c2c1 [Compound 27]", "µg/mL", 0.25]
]}

// switching to the query compound
Req: Given the compound O=C(NCC12CC3CC(CC(C3)C1)C2)c1cc2ccccc2[nH]1 [Compound 8] , what is its reported MIC?
Resp: 1

---

# Tested on: M. chelonae ATCC 35752
# METHOD_NOTES: MIC, resazurin microtiter assay
# Assay type: cell-based
# RUN_PARAMETERS: Mycobacteroides chelonae, ATCC35752, Mueller Hinton II; read-out: MIC M. chelonae ATCC 35752
REPORTED_ENDPOINT: MIC

{"columns": ["COMPOUND", "RESULT"],
 "data": [
  ["CC(NC(=O)c1cc2ccccc2[nH]1)C12CC3CC(CC(C3)C1)C2 (stereo not shown) [Compound 7]", "2 µg/mL"],
  ["Cc1cc(C)c2cc(C(=O)NCC34CC5CC(CC(C5)C3)C4)[nH]c2c1 [Compound 23]", "> 32 µg/mL"],
  ["CCC12CC3CC(C1)CC(NC(=O)c1cc4c(C)cc(C)cc4[nH]1)(C3)C2 [Compound 21]", "> 32 µg/mL"],
  ["Cc1cc(C)c2cc(C(=O)N[C@@H]3C[C@@H]4C[C@H]([C@H]3C)C4(C)C)[nH]c2c1 [Compound 31]", "0.125 µg/mL"],
  ["O=C(NCc1cccc(Cl)c1)c1cc2ccccc2[nH]1 [Compound 19]", "> 32 µg/mL"]
]}

Req: Can you look up the measured MIC of Cc1cc(C)c2cc(C(=O)NC3CCCC3)[nH]c2c1 [Compound 28] for me?
Resp: 2 µg/mL

Req: Reported MIC for Cc1cc(C)c2cc(C(=O)NC3CCCCCC3)[nH]c2c1 [Compound 26] : what is it?
Resp: ≤ 0.06 µg/mL

Req: I would be grateful if you could share the reported MIC for CCC12CC3CC(C1)CC(NC(=O)c1cc4ccccc4[nH]1)(C3)C2 [Compound 6] .
Resp: > 32 µg/mL

Req: Any idea what its MIC is? The compound is O=C(NC1CCCCC1)c1cc2ccccc2[nH]1 [Compound 12, N-cyclohexyl-1H-indole-2-carboxamide]
Resp: > 32 µg/mL

Req: For the compound Cc1cc(C)c2cc(C(=O)NC34CC5CC(CC(C5)C3)C4)[nH]c2c1 [Compound 20] , what MIC is on record?
Resp: > 32 µg/mL

Req: Consider the compound shown here: CCCCCCCNC(=O)c1cc2c(C)cc(C)cc2[nH]1 [Compound 32] What is its recorded MIC?
Resp: > 32 µg/mL

---

# System: M. smegmatis mc^2155
# METHOD_NOTES: MIC, resazurin microtiter assay
# Format: cell-based
# RUN_PARAMETERS: Mycolicibacterium smegmatis, MC^2155, 7H9-ADC-0.05% Tween 80; read-out: MIC M. smeg. mc^2155
REPORTED_ENDPOINT: MIC (µg/mL)
Please give a number only; it is taken to be in µg/mL.

Illustrative cases are given below, each with its answer.
{"columns": ["COMPOUND", "MIC, µg/mL"],
 "data": [
  ["Cc1cc(C)c2cc(C(=O)NC3CCCCCC3)[nH]c2c1 [Compound 26]", 0.625],
  ["C[C@@H]1[C@H]2C[C@@H](C[C@H]1NC(=O)c1cc3ccccc3[nH]1)C2(C)C [Compound 16]", 0.78]
]}

Please examine the following record next.
Req: Could you tell me which MIC is on file for Cc1cc(C)c2cc(C(=O)NC3CCCCC3)[nH]c2c1 [Compound 27] ?
Resp: 2.5

---

# Tested on: M. smegmatis mc^2155
# METHOD_NOTES: MIC, resazurin microtiter assay
# Format: cell-based
# RUN_PARAMETERS: Mycolicibacterium smegmatis, MC^2155, 7H9-ADC-0.05% Tween 80; read-out: MIC M. smeg. mc^2155
Measured MIC, listed per entry.

Some solved entries appear below for comparison.
{"columns": ["MOLECULE", "RESULT"],
 "data": [
  ["O=C(NCc1cccc(Cl)c1)c1cc2ccccc2[nH]1", "> 20 µg/mL"],
  ["CCCCCCCCNC(=O)c1cc2ccccc2[nH]1 [Compound 18, N-octyl-1H-indole-2-carboxamide]", "> 25 µg/mL"],
  ["O=C(NC1C2CC3CC(C2)CC1C3)c1cc2ccccc2[nH]1 (centres unmarked) [Compound 9, N-(2-adamantyl)-1H-indole-2-carboxamide]", "> 25 µg/mL"]
]}

Req: So what's the measured MIC for this one? O=C(NC1CCCC1)c1cc2ccccc2[nH]1 [Compound 13, N-cyclopentyl-1H-indole-2-carboxamide]
Resp: > 25 µg/mL

Req: Please report the recorded MIC for Cc1cc(C)c2cc(C(=O)N[C@@H]3C[C@@H]4C[C@H]([C@H]3C)C4(C)C)[nH]c2c1 .
Resp: 1.25 to 2.5 µg/mL

---

compounds and their reported MIC
# Tested on: M. avium 104
# METHOD_NOTES: MIC, resazurin microtiter assay
# Type: cell-based
# RUN_PARAMETERS: Mycobacterium avium, 104; Mueller Hinton II; read-out: MIC M. avium 104

Req: Consider the compound C[C@@H]1[C@H]2C[C@@H](C[C@H]1NC(=O)c1cc3ccccc3[nH]1)C2(C)C and give its measured MIC.
Resp: 8 µg/mL

Req: So what's the measured MIC for this one? CCC12CC3CC(C1)CC(NC(=O)c1cc4c(C)cc(C)cc4[nH]1)(C3)C2
Resp: > 32 µg/mL

Req: Request the reported MIC associated with Cc1cc(C)c2cc(C(=O)NC(C)C34CC5CC(CC(C5)C3)C4)[nH]c2c1 (stereo not drawn)
Resp: > 32 µg/mL

Req: I'd like to know its MIC. The compound in question is Cc1cc(C)c2cc(C(=O)NC3C4CC5CC(C4)CC3C5)[nH]c2c1 (stereo not drawn)
Resp: > 32 µg/mL

Req: # input compound: CCCCCCCNC(=O)c1cc2c(C)cc(C)cc2[nH]1 ; wanted: its MIC
Resp: > 32 µg/mL

Req: If you can, please state the reported MIC value of Cc1cc(C)c2cc(C(=O)N[C@@H]3C[C@@H]4C[C@H]([C@H]3C)C4(C)C)[nH]c2c1 .
Resp: 2 µg/mL

---

# System: S. aureus ATCC25923
# METHOD_NOTES: MIC, resazurin microtiter assay
# Format: cell-based
# RUN_PARAMETERS: Staphylococcus aureus, ATCC25923; Mueller Hinton II; read-out: MIC S. aureus ATCC25923
REPORTED_ENDPOINT: MIC

Reference set (4 entries):
{"columns": ["COMPOUND", "REPORTED_ENDPOINT", "RESULT"],
 "data": [
  ["Cc1cc(C)c2cc(C(=O)NC3CCCCCCC3)[nH]c2c1 [Compound 25]", "MIC", "> 160 µg/mL"],
  ["Cc1cc(C)c2cc(C(=O)N[C@@H]3C[C@@H]4C[C@H]([C@H]3C)C4(C)C)[nH]c2c1 [Compound 31]", "MIC", "> 160 µg/mL"],
  ["Cc1cc(C)c2cc(C(=O)NC3CCCCCC3)[nH]c2c1 [Compound 26]", "MIC", "> 160 µg/mL"],
  ["C[C@@H]1[C@H]2C[C@@H](C[C@H]1NC(=O)c1cc3ccccc3[nH]1)C2(C)C [Compound 16]", "MIC", "40 µg/mL"]
]}

In the following, a different compound is considered.
Req: Look up MIC with S. aureus ATCC25923 for this compound: Cc1cc(C)c2cc(C(=O)NC3CCC(C)CC3)[nH]c2c1 (centres unmarked) [Compound 30]
Resp: > 160 µg/mL

---

Listed here: items and their measured MIC.
# Test system: M. avium 104
# METHOD_NOTES: MIC, resazurin microtiter assay
# Assay type: cell-based
# RUN_PARAMETERS: Mycobacterium avium, 104; Mueller Hinton II; read-out: MIC M. avium 104

Worked cases, answers included:
{"columns": ["COMPOUND", "MIC"],
 "data": [
  ["Cc1cc(C)c2cc(C(=O)NC3CCCCC3)[nH]c2c1 [Compound 27]", "> 32 µg/mL"],
  ["Cc1cc(C)c2cc(C(=O)NC34CC5CC(CC(C5)C3)C4)[nH]c2c1 [Compound 20]", "> 32 µg/mL"],
  ["O=C(NCC12CC3CC(CC(C3)C1)C2)c1cc2ccccc2[nH]1 [Compound 8]", "> 32 µg/mL"],
  ["Cc1cc(C)c2cc(C(=O)NC3CCCCCC3)[nH]c2c1 [Compound 26]", "2 µg/mL"],
  ["Cc1cc(C)c2cc(C(=O)NCC34CC5CC(CC(C5)C3)C4)[nH]c2c1 [Compound 23]", "> 32 µg/mL"],
  ["CCC12CC3CC(C1)CC(NC(=O)c1cc4ccccc4[nH]1)(C3)C2 [Compound 6]", "> 32 µg/mL"],
  ["O=C(NC1CCCCCCC1)c1cc2ccccc2[nH]1 [Compound 10, N-cyclooctyl-1H-indole-2-carboxamide]", "> 32 µg/mL"],
  ["O=C(NC1C2CC3CC(C2)CC1C3)c1cc2ccccc2[nH]1 (stereo not shown) [Compound 9, N-(2-adamantyl)-1H-indole-2-carboxamide]", "> 32 µg/mL"],
  ["Cc1cc(C)c2cc(C(=O)NC3CCCC3)[nH]c2c1 [Compound 28]", "> 32 µg/mL"]
]}

Req: What MIC value was documented for this compound, CCCCCCCCNC(=O)c1cc2c(C)cc(C)cc2[nH]1 [Compound 33] ?
Resp: > 32 µg/mL
